- assay.protocol: Partition coefficient (logP)
- Format: physicochemical
- conditions: octanol/water
With a cut-off of 2, any logP strictly below it is called t; any logP meeting it or above is called f.

Look over these answered cases.
compound: CCCCCC1(c2ccncc2)CCC(=O)NC1=O (configuration not stated)
assigned.label: f
//
compound: CCCCN1C(=O)CCC(CC)(c2ccncc2)C1=O (configuration not stated)
assigned.label: f
//
compound: CCN1C(=O)CCC(CC)(c2ccncc2)C1=O (configuration not stated)
assigned.label: t

Query :: Below 2 on logP? Entry CCCN1C(=O)CCC(CC)(c2ccncc2)C1=O (configuration not stated)
Result :: f

Query :: Below 2 on logP? Entry CCCC1(c2ccncc2)CCC(=O)NC1=O (configuration not stated)
Result :: t

Query :: Below 2 on logP? Entry CCCCCCC1(c2ccncc2)CCC(=O)NC1=O (configuration not stated)
Result :: f

Query :: Below 2 on logP? Entry CCC1(c2ccncc2)CCC(=O)NC1=O (configuration not stated) [ROGLETIMIDE]
Result :: t

* * *

- measured.target: Aromatase (Homo sapiens)
- Sequence (P11511 whole entry): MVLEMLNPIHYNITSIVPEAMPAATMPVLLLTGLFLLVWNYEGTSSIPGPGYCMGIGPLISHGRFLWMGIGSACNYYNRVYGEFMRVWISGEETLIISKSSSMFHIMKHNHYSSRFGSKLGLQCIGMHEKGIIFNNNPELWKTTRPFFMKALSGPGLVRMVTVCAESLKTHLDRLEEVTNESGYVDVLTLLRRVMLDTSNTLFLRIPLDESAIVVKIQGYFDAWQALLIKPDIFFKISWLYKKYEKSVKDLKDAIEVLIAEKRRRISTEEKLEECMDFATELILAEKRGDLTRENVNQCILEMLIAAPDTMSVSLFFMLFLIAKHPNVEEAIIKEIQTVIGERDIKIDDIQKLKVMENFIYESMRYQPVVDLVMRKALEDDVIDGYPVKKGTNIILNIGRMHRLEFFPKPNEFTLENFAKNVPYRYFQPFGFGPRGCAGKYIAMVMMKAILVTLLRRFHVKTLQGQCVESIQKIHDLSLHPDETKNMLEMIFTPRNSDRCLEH
measure: IC50 (µM)
Only the number, expressed in µM, is required.

Query :: Write down measured IC50 (Aromatase (Homo sapiens)) for this compound. CCCCCCC1(c2ccncc2)CCC(=O)NC1=O (stereo unspecified)
Result :: 3.6
